Below, each of the compounds is paired with its reported IC50 value.
biological target: H1N9 Influenza Neuraminidase (Influenza A virus, UniProt P03472); assay: biochemical; settings: 10 min at 37° C.; read-out: Inhibition of H1N9 Influenza Neuraminidase IC50
Sequence (P03472 83-470 limits assumed): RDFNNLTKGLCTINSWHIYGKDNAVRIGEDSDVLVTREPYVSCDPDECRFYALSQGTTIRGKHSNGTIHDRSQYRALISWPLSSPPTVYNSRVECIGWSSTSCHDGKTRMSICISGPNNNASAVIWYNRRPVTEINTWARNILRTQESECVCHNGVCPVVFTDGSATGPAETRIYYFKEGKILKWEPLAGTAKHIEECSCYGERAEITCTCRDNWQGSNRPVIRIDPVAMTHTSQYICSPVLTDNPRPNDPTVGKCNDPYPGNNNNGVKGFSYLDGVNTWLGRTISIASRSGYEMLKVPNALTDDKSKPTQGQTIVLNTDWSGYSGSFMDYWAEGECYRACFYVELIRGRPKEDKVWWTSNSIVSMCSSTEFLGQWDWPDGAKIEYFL

- compound: "CC(=O)NC(C(O)C(O)CO)[C@H]1CC(C(=O)O)C[C@@H]1NC(=N)N (single isomer, unassigned; isomer a) [Example 12]"
  tgt: "H1N9 Influenza Neuraminidase (Influenza A virus, UniProt P03472)"
  IC50 / µM: 7.5
- compound: "CC(=O)NC(C(O)C(O)CO)[C@H]1CC(C(=O)O)C[C@@H]1NC(=N)N (single isomer, unassigned; isomer b) [Example 15]"
  tgt: "H1N9 Influenza Neuraminidase (Influenza A virus, UniProt P03472)"
  IC50 / µM: 50
- compound: "CCCN(CCC)C(=O)C(NC(C)=O)[C@H]1C[C@@](O)(C(=O)O)C[C@@H]1N=C(N)N (stereo partly drawn)"
  tgt: "H1N9 Influenza Neuraminidase (Influenza A virus, UniProt P03472)"
  IC50 / µM: 0.47
- compound: "CC(=O)NC(C(O)C(O)CO)[C@H]1CC(C(=O)O)C[C@@H]1N (single isomer, unassigned; isomer a)"
  tgt: "H1N9 Influenza Neuraminidase (Influenza A virus, UniProt P03472)"
  IC50 / µM: 600
- compound: "CC(=O)NC(COC(=O)C(F)(F)F)[C@H]1C[C@](O)(C(=O)O)C[C@@H]1NC(=N)N (single isomer, unassigned; isomer a) [Example 16]"
  tgt: "H1N9 Influenza Neuraminidase (Influenza A virus, UniProt P03472)"
  IC50 / µM: 70
- compound: "CC(=O)NC(CO)[C@H]1C[C@@](O)(C(=O)O)C[C@@H]1NC(=N)N (single isomer, unassigned; isomer a)"
  tgt: "H1N9 Influenza Neuraminidase (Influenza A virus, UniProt P03472)"
  IC50 / µM: 600

---

Where a name gives a salt, the structure may show the parent alone.
Below, each of the compounds is paired with its reported melting point value.

- compound: "CC(=O)NC(COCc1ccccc1)[C@H]1C[C@@](O)(C(=O)O)C[C@@H]1N (stereo partly drawn) (as salt: ammonium)"
  melting point: "37 to 39 °C"
- compound: "CC(=O)NC(C(O)C(O)CO)[C@H]1CC(C(=O)O)C[C@@H]1NC(=N)N (single isomer, unassigned; isomer a) (as salt: salt) [Example 12]"
  melting point: "76 to 80 °C"
- compound: "CCN(CC)C(=O)C(NC(C)=O)[C@H]1C[C@@H](C(=O)O)C[C@@H]1NC(=N)N (single isomer, unassigned) (as salt: trifluoroacetic acid salt)"
  melting point: "> 110 °C (dec.)"

---

Counter-ions that a name gives are not always drawn.

- compound: "CON(C)C(=O)C(NC(C)=O)[C@H]1C[C@](O)(C(=O)O)C[C@@H]1NC(=N)N (some centres unmarked) [Example 19]"
  melting point: "160 to 216 °C"
- compound: "CC(=O)NC(CO)[C@H]1CC(C(=O)O)C[C@@H]1NC(=N)N (single isomer, unassigned; isomer a) [Example 6]"
  melting point: "121 to 122 °C"
- compound: "CON(C)CCC(=O)C(NC(C)=O)[C@H]1CC(C(=O)O)C[C@@H]1NC(=N)N (some centres unmarked) (as salt: salt) [Example 20]"
  melting point: "189 to 192 °C"
- compound: "CC(=O)NC(COC(=O)C(F)(F)F)[C@H]1C[C@](O)(C(=O)O)C[C@@H]1NC(=N)N (single isomer, unassigned; isomer b) (as salt: salt) [Example 17]"
  melting point: "210 to 220 °C"
- compound: "CC(=O)NC(CO)[C@H]1C[C@@](O)(C(=O)O)C[C@@H]1N (some centres unmarked) (as salt: ammonium)"
  melting point: "83 to 85 °C"
- compound: "CC(=O)NC(C(O)C(O)CO)[C@H]1CC(C(=O)O)C[C@@H]1N (single isomer, unassigned) (as salt: salt)"
  melting point: "58 to 62 °C"
- compound: "CCC=CC(NC(C)=O)[C@H]1CC(C(=O)O)C[C@@H]1NC(=N)N (some centres unmarked) (as salt: salt)"
  melting point: "62 to 64 °C"
- compound: "CC(=O)NC(C(O)C(O)CO)[C@H]1CC(C(=O)O)C[C@@H]1NC(=N)N (single isomer, unassigned; isomer b) (as salt: salt) [Example 14]"
  melting point: "125 to 135 °C"
- compound: "CC(=O)NC(CO)[C@H]1CC(C(=O)[O-])C[C@@H]1NC(=N)N.[Na+] (single isomer, unassigned; isomer b) (hydrate or solvate) [Example 7]"
  melting point: "65 °C"
- compound: "CC(=O)NC(COC(=O)C(F)(F)F)[C@H]1C[C@](O)(C(=O)O)C[C@@H]1NC(=N)N (single isomer, unassigned; isomer a) (as salt: salt) [Example 16]"
  melting point: "148 to 160 °C"
- compound: "CC(=O)NC(C(O)C(O)CO)[C@H]1CC(C(=O)O)C[C@@H]1NC(=N)N (single isomer, unassigned; isomer b) (as salt: salt) [Example 13]"
  melting point: "124 to 128 °C"
- compound: "CC(=O)NC(C(O)C(O)CO)[C@H]1CC(C(=O)O)C[C@@H]1NC(=N)N (single isomer, unassigned; isomer b) (as salt: salt) [Example 15]"
  melting point: "140 to 145 °C"
- compound: "CCCN(CCC)C(=O)C(NC(C)=O)[C@H]1C[C@@](O)(C(=O)O)C[C@@H]1N (single isomer, unassigned) (as salt: salt)"
  melting point: "168 to 170 °C"
- compound: "CCCN(CCC)C(=O)C(NC(C)=O)[C@H]1C[C@@](O)(C(=O)O)C[C@@H]1NC(=N)N (some centres unmarked) (as salt: salt) [Example 23]"
  melting point: "153 to 155 °C"
